Where do the numbers come from? From paper PMC9352680.

- Tested target: T1, PUF4 RNA-binding domain (Saccharomyces cerevisiae, UniProt P25339 537-888)
- T1 sequence: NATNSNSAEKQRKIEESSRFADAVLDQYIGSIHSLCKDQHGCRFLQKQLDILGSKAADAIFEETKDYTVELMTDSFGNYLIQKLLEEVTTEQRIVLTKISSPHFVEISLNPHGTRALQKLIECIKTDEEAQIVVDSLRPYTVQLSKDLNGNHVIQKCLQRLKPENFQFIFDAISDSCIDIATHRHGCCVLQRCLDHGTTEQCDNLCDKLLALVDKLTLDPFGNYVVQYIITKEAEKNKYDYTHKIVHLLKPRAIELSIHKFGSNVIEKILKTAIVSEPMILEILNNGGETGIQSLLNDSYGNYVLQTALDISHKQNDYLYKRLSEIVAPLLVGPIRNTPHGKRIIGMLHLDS
- Test method notes: Mg; RNA-MaP; 20 mM Na-HEPES pH 7.4, 30 mM KOAc, 0.75 mM MgCl2, 0.1% Tween-20, 5% glycerol, 0.1 mg/mL BSA, 2 mM DTT; 25 C; 0.0125-409.6 nM protein
- Condition: tags: N-His6-TEV cleaved; C-SNAP kept, Cy3B-labelled; label: tethered on chip by stalled RNA polymerase
Recorded pKd values for a group of binders are listed next.
Quick note: pKd values are minus log10 of concentrations in mol/L.

Example cases with answers are listed next.
>>> observed_result("Ie_S4_P5E.1_K5.1_C5.1_H5.1_[+4CC]_A5.1_F5.1_T5.1 (ssRNA) RNA: UUUGACAACUGAUCGUUCUUUCUUGUACCUUAUUAUUCUUUCUCGAUCAGUUGUCUUU")
8.85
>>> observed_result("Ic_S4_P5E.1_K5.1_C5.1_H5.1_A5.1_[T5C]_[T6A]_[A7G]_F5.1_[T9G]_[A10C]_T5.1 (ssRNA) RNA: UUUGACAACUGAUCGUUCUUUCUUGUACAGUGCUUCUUUCUCGAUCAGUUGUCUUU")
7.98

Consider the additional binder presented here.
Asked: Find the measured pKd of UCUCUUGGUAUAUUGUCUCUU (ssRNA) [Ib_S1_P4E.1_K4.1_C4.1_H4.1_[T1G]_A4.1_F4.1_[A9G]_T4.1] and report it.
Given back: 6.16
